Species: Rattus norvegicus
run description: Open TG-GATES - Regimen: Daily Repeat
Type: toxicity, organism-based, Sprague-Dawley
Design: regimen Daily Repeat, gender Male, age 6 weeks
assay setup: in vivo, po, 0 mg/kg, […], tissue Plasma, route gavage, dose level Control, time 28 day
The label 1 is reserved for GLC strictly under 200 mg/dL; -1 covers values equal to or above it.

Please let me know if O=C(O)Cc1ccccc1Nc1c(Cl)cccc1Cl shows GLC below 200 mg/dL.
-1

Please let me know if CN(C)[C@@H]1C(O)=C(C(N)=O)C(=O)[C@@]2(O)C(O)=C3C(=O)c4c(O)cccc4[C@@](C)(O)[C@H]3C[C@@H]12 shows GLC below 200 mg/dL.
1

Please let me know if Cc1cccc(Nc2ccccc2C(=O)O)c1C shows GLC below 200 mg/dL.
-1

Please let me know if Clc1c(Cl)c(Cl)c(Cl)c(Cl)c1Cl shows GLC below 200 mg/dL.
1

Please let me know if CC(=O)Nc1nnc(S(N)(=O)=O)s1 [ACETAZOLAMIDE] shows GLC below 200 mg/dL.
-1

---

Could you please report measured CRE for the items listed next?
Species: Rattus norvegicus
run description: Open TG-GATES - Regimen: Daily Repeat
Type: toxicity, organism-based, Sprague-Dawley
Set-up: regimen Daily Repeat, gender Male, age 6 weeks
assay setup: in vivo, po, 0 mg/kg, […], tissue Plasma, route gavage, dose level Control, time 7 day
Give a bare numeral; the unit mg/dL is implied.

Would you kindly share the measured CRE for CN(C)[C@@H]1C(O)=C(C(N)=O)C(=O)[C@@]2(O)C(O)=C3C(=O)c4c(O)cccc4[C@@](C)(O)[C@H]3C[C@@H]12 ?
0.6

Would you kindly share the measured CRE for C1CCC(C(CC2CCCCN2)C2CCCCC2)CC1 (centres undefined) ?
0.2

Would you kindly share the measured CRE for CCOC(=O)[C@H](CCc1ccccc1)N[C@@H](C)C(=O)N1CCC[C@H]1C(=O)O ?
0.5

Would you kindly share the measured CRE for C#C[C@]1(O)CC[C@H]2[C@@H]3CCC4=Cc5oncc5C[C@]4(C)[C@H]3CC[C@@]21C ?
0.2

---

Species: Rattus norvegicus
run description: Open TG-GATES - Regimen: Daily Repeat
Assay type: toxicity, organism-based, Sprague-Dawley
Design: regimen Daily Repeat, gender Male, age 6 weeks
assay setup: in vivo, po, 0 mg/kg, […], tissue Blood, route gavage, dose level Control, time 7 day
value kind: Fbg (mg/dL)
Give a bare numeral; the unit mg/dL is implied.

Would you kindly share the measured Fbg for CCOC(=O)[C@H](CCc1ccccc1)N[C@@H](C)C(=O)N1CCC[C@H]1C(=O)O ?
227.8

Would you kindly share the measured Fbg for CN1C(C(=O)Nc2ccccn2)=C(O)c2sc(Cl)cc2S1(=O)=O [LORNOXICAM] ?
230.2

Would you kindly share the measured Fbg for C#C[C@]1(O)CC[C@H]2[C@@H]3CCC4=Cc5oncc5C[C@]4(C)[C@H]3CC[C@@]21C [DANAZOL] ?
302.8

---

Could you please report measured Mono for the items listed next?
Species: Rattus norvegicus
run description: Open TG-GATES - Regimen: Daily Repeat
Type: toxicity, organism-based, Sprague-Dawley
Design: regimen Daily Repeat, gender Male, age 6 weeks
assay setup: in vivo, po, 0 mg/kg, […], tissue Blood, route gavage, dose level Control, time 14 day
Give a bare numeral; the unit % is implied.

Would you kindly share the measured Mono for CN(C)[C@@H]1C(O)=C(C(N)=O)C(=O)[C@@]2(O)C(O)=C3C(=O)c4c(O)cccc4[C@@](C)(O)[C@H]3C[C@@H]12 ?
5.6

Would you kindly share the measured Mono for Cc1cccc(Nc2ccccc2C(=O)O)c1C ?
2.2

Would you kindly share the measured Mono for O=C(O)Cc1ccccc1Nc1c(Cl)cccc1Cl ?
2

Would you kindly share the measured Mono for CCOC(=O)[C@H](CCc1ccccc1)N[C@@H](C)C(=O)N1CCC[C@H]1C(=O)O ?
5.8

Would you kindly share the measured Mono for CN1C(C(=O)Nc2ccccn2)=C(O)c2sc(Cl)cc2S1(=O)=O ?
2.4

Would you kindly share the measured Mono for CC(=O)Nc1nnc(S(N)(=O)=O)s1 [ACETAZOLAMIDE] ?
2.2

Would you kindly share the measured Mono for C#C[C@]1(O)CC[C@H]2[C@@H]3CCC4=Cc5oncc5C[C@]4(C)[C@H]3CC[C@@]21C ?
2

Would you kindly share the measured Mono for Clc1c(Cl)c(Cl)c(Cl)c(Cl)c1Cl ?
6.4

Would you kindly share the measured Mono for CC(CN1c2ccccc2Sc2ccccc21)N(C)C (stereo not given) ?
2

Would you kindly share the measured Mono for C1CCC(C(CC2CCCCN2)C2CCCCC2)CC1 (stereo not given) ?
1.2

---

Could you please report measured TBIL for the items listed next?
Species on record: Rattus norvegicus
run description: Open TG-GATES - Regimen: Single
Type: toxicity, organism-based, Sprague-Dawley
Set-up: regimen Single, gender Male, age 6 weeks
assay setup: in vivo, po, 0 mg/kg, 6 h, tissue Plasma, route gavage, dose level Control
Give a bare numeral; the unit mg/dL is implied.

Would you kindly share the measured TBIL for C#C[C@]1(O)CC[C@H]2[C@@H]3CCC4=Cc5oncc5C[C@]4(C)[C@H]3CC[C@@]21C [DANAZOL] ?
0.02

Would you kindly share the measured TBIL for CC(=O)Nc1nnc(S(N)(=O)=O)s1 [ACETAZOLAMIDE] ?
0.024

Would you kindly share the measured TBIL for Clc1c(Cl)c(Cl)c(Cl)c(Cl)c1Cl [PERCHLOROBENZENE] ?
0.1

Would you kindly share the measured TBIL for CN1C(C(=O)Nc2ccccn2)=C(O)c2sc(Cl)cc2S1(=O)=O [LORNOXICAM] ?
0.1

Would you kindly share the measured TBIL for CN(C)[C@@H]1C(O)=C(C(N)=O)C(=O)[C@@]2(O)C(O)=C3C(=O)c4c(O)cccc4[C@@](C)(O)[C@H]3C[C@@H]12 [TETRACYCLINE] ?
0.3

Would you kindly share the measured TBIL for Cc1cccc(Nc2ccccc2C(=O)O)c1C [MEFENAMIC ACID] ?
0.1

Would you kindly share the measured TBIL for C1CCC(C(CC2CCCCN2)C2CCCCC2)CC1 (stereo not given) [PERHEXILINE] ?
0.018

Would you kindly share the measured TBIL for CC(CN1c2ccccc2Sc2ccccc21)N(C)C (stereo not given) [PROMETHAZINE] ?
0.018

Would you kindly share the measured TBIL for CCOC(=O)[C@H](CCc1ccccc1)N[C@@H](C)C(=O)N1CCC[C@H]1C(=O)O ?
0.4

Would you kindly share the measured TBIL for COc1cc([C@@H]2c3cc4c(cc3[C@@H](O[C@@H]3O[C@@H]5CO[C@@H](C)O[C@H]5[C@H](O)[C@H]3O)[C@H]3COC(=O)[C@H]23)OCO4)cc(OC)c1O [ETOPOSIDE] ?
0.4

---

Species on record: Rattus norvegicus
run description: Open TG-GATES - Regimen: Daily Repeat
Format: toxicity, organism-based, Sprague-Dawley
Set-up: regimen Daily Repeat, gender Male, age 6 weeks
assay setup: in vivo, po, 0 mg/kg, […], tissue Plasma, route gavage, dose level Control, time 28 day
Could you please report measured DBIL for the items listed next?
Give a bare numeral; the unit mg/dL is implied.

Would you kindly share the measured DBIL for C1CCC(C(CC2CCCCN2)C2CCCCC2)CC1 (stereo not given) ?
0

Would you kindly share the measured DBIL for Cc1cccc(Nc2ccccc2C(=O)O)c1C ?
0.1

Would you kindly share the measured DBIL for C#C[C@]1(O)CC[C@H]2[C@@H]3CCC4=Cc5oncc5C[C@]4(C)[C@H]3CC[C@@]21C ?
0

Would you kindly share the measured DBIL for CC(CN1c2ccccc2Sc2ccccc21)N(C)C (stereo not given) ?
0

Would you kindly share the measured DBIL for CN1C(C(=O)Nc2ccccn2)=C(O)c2sc(Cl)cc2S1(=O)=O ?
0.1

Would you kindly share the measured DBIL for CC(=O)Nc1nnc(S(N)(=O)=O)s1 [ACETAZOLAMIDE] ?
0

Would you kindly share the measured DBIL for Clc1c(Cl)c(Cl)c(Cl)c(Cl)c1Cl ?
0.014

Would you kindly share the measured DBIL for O=C(O)Cc1ccccc1Nc1c(Cl)cccc1Cl ?
0.1

Would you kindly share the measured DBIL for CCOC(=O)[C@H](CCc1ccccc1)N[C@@H](C)C(=O)N1CCC[C@H]1C(=O)O ?
0.036

Would you kindly share the measured DBIL for CN(C)[C@@H]1C(O)=C(C(N)=O)C(=O)[C@@]2(O)C(O)=C3C(=O)c4c(O)cccc4[C@@](C)(O)[C@H]3C[C@@H]12 ?
0.016

---

Species: Rattus norvegicus
run description: Open TG-GATES - Regimen: Daily Repeat
Type: toxicity, organism-based, Sprague-Dawley
Design: regimen Daily Repeat, gender Male, age 6 weeks
assay setup: in vivo, po, 0 mg/kg, […], tissue Blood, route gavage, dose level Control, time 28 day
Could you please report measured Mono for the items listed next?
Give a bare numeral; the unit % is implied.

Would you kindly share the measured Mono for Cc1cccc(Nc2ccccc2C(=O)O)c1C ?
2

Would you kindly share the measured Mono for CC(CN1c2ccccc2Sc2ccccc21)N(C)C (centres undefined) ?
1.8

Would you kindly share the measured Mono for CC(=O)Nc1nnc(S(N)(=O)=O)s1 [ACETAZOLAMIDE] ?
2

Would you kindly share the measured Mono for CN(C)[C@@H]1C(O)=C(C(N)=O)C(=O)[C@@]2(O)C(O)=C3C(=O)c4c(O)cccc4[C@@](C)(O)[C@H]3C[C@@H]12 ?
4.4
